Target: T1, recombinant human IFN-γ protein (human, UniProt P01579 24-166, limits assumed)
T1 construct: Bought protein; also called interferon gamma; R&D systems 285-IF-100
T1 sequence: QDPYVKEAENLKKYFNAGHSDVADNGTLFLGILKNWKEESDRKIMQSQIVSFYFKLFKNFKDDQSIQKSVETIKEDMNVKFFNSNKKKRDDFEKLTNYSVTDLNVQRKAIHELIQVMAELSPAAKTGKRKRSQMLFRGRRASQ
Assay: BLI (Octet RED96), mAb captured on AHC biosensor, recombinant human IFN-γ in solution, 1:1 model; second experiment
reported-property: koff (s⁻¹)

1) antibody 2A6_Q (antibody, human IgG1, V domains shown, removes the N-glycosylation site of the VH; human IgG1 lambda; also called c2A6_Q) VH: EVQLVESGGGLVKPGDSLTVSCVASGFTFSNYFIHWVRQAPGKGLEWVATISGRTKYMFYSDSLRGRFTVSRDNAQNSVYLHMSSLRGEDTALYYCVRGYDHSDSNSAADLLHWGRGTLVTVSS VL: NFMLTQPLSVSGYPGKTIVISCVRSSGSVASHYVQWFQQRPGSAPAMVIYEDSHRPSGIPDRFSGSVDASSNSASLTISGLKTEDEADYFCQSYYGNNQVLFGGGTKLTVL	5.23e-05
2) antibody 2A6_A (antibody, human IgG1, V domains shown, removes the N-glycosylation site of the VH; human IgG1 lambda; also called c2A6_A) VH: EVQLVESGGGLVKPGDSLTVSCVASGFTFSNYFIHWVRQAPGKGLEWVATISGRTKYMFYSDSLRGRFTVSRDNAANSVYLHMSSLRGEDTALYYCVRGYDHSDSNSAADLLHWGRGTLVTVSS VL: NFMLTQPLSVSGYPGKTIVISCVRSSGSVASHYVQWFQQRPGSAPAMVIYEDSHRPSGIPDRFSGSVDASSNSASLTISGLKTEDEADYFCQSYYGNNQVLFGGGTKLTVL	5.17e-05
3) antibody AB (antibody, human IgG1, V domains shown, Combination of the 2A6 VH heavy chain and the 2B6 VL light chain; human IgG1 lambda; also called VH2A6/VL2B6) VH: EVQLVESGGGLVKPGDSLTVSCVASGFTFSNYFIHWVRQAPGKGLEWVATISGRTKYMFYSDSLRGRFTVSRDNANNSVYLHMSSLRGEDTALYYCVRGYDHSDSNSAADLLHWGRGTLVTVSS VL: NFMLTQPHSVSESPGKTITISCTRGRGYIASYYVQWYQQRPGGVPKIVVFEDTQRPSGVPDRISGSIDTSTNSASLTISGLQTEDEADYYCQSYDDANHVIFGGGTKLTVL	5.46e-05
4) antibody 2A6 (antibody, human IgG1, V domains shown, partial N-linked glycosylation at Asn-76 of the VH, Human antibody from a single B cell, cloned into human IgG1 lambda expression vectors and made in FreeStyle 293-F cells) VH: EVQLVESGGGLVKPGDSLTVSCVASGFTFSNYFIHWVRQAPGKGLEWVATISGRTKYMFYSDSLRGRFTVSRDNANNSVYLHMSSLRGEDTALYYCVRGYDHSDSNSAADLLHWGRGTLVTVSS VL: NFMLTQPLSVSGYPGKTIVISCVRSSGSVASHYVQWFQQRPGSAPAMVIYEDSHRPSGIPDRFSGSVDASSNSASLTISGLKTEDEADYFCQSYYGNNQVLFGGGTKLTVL	4.9e-05
